Attribution: the NIST ThermoML archive (doi:10.1021/acs.jced.7b00242)

Documented mass density across a set of compounds
settings: 313.15 K; 101 kPa; Liquid; Vibrating tube method
resultType: mass density (kg/m3)

{"columns": ["compound", "measValue"],
 "data": [
  ["CCCCCCCCCCCCCCn1cc[n+](C)c1.O=S(=O)([N-]S(=O)(=O)C(F)(F)F)C(F)(F)F", 1187.6],
  ["CCCCCCCCCCCCn1cc[n+](C)c1.O=S(=O)([N-]S(=O)(=O)C(F)(F)F)C(F)(F)F", 1232.2],
  ["CCCCCCCCCCn1cc[n+](C)c1.[Cl-] [1-decyl-3-methylimidazolium chloride]", 974.4],
  ["CCCCCCCCCCn1cc[n+](C)c1.O=S(=O)([N-]S(=O)(=O)C(F)(F)F)C(F)(F)F", 1265.3]
]}

* * *

conditions: 353.15 K; 101 kPa; Liquid; Vibrating tube method
Numbers after ± are expanded uncertainties.

{"columns": ["molecule", "mass density"],
 "data": [
  ["CCCCCCCCCCn1cc[n+](C)c1.[Cl-] [1-decyl-3-methylimidazolium chloride]", "950.7 ± 20 kg/m3"],
  ["CCCCCCCCCCCCCCn1cc[n+](C)c1.O=S(=O)([N-]S(=O)(=O)C(F)(F)F)C(F)(F)F", "1154.6 ± 20 kg/m3"],
  ["CCCCCCCCCCCCn1cc[n+](C)c1.O=S(=O)([N-]S(=O)(=O)C(F)(F)F)C(F)(F)F", "1200 ± 20 kg/m3"],
  ["CCCCCCCCCCn1cc[n+](C)c1.O=S(=O)([N-]S(=O)(=O)C(F)(F)F)C(F)(F)F", "1230.6 ± 20 kg/m3"]
]}

* * *

settings: 303.15 K; 101 kPa; Liquid; Vibrating tube method

{"columns": ["molecule", "unitAbbrev", "mass density"],
 "data": [
  ["CCCCCCCCCCn1cc[n+](C)c1.O=S(=O)([N-]S(=O)(=O)C(F)(F)F)C(F)(F)F", "kg/m3", 1274.2],
  ["CCCCCCCCCCn1cc[n+](C)c1.[Cl-] [1-decyl-3-methylimidazolium chloride]", "kg/m3", 979.7],
  ["CCCCCCCCCCCCn1cc[n+](C)c1.O=S(=O)([N-]S(=O)(=O)C(F)(F)F)C(F)(F)F", "kg/m3", 1242],
  ["CCCCCCCCCCCCCCn1cc[n+](C)c1.O=S(=O)([N-]S(=O)(=O)C(F)(F)F)C(F)(F)F", "kg/m3", 1197.1]
]}

* * *

conditions: Crystal; DTA
Entries and their Normal melting temperature
resultType: Normal melting temperature (°C)

{"columns": ["compound", "unitAbbrev", "measValue"],
 "data": [
  ["CCCCCCCCCCn1cc[n+](C)c1.[Cl-] [1-decyl-3-methylimidazolium chloride]", "°C", 28.96],
  ["CCCCCCCCCCn1cc[n+](C)c1.O=S(=O)([N-]S(=O)(=O)C(F)(F)F)C(F)(F)F", "°C", 3.04],
  ["CCCCCCCCCCCCCCn1cc[n+](C)c1.O=S(=O)([N-]S(=O)(=O)C(F)(F)F)C(F)(F)F", "°C", 34.4],
  ["CCCCCCCCCCCC[n+]1ccn(C)c1.[Cl-] [1-dodecyl-3-methylimidazolium chloride]", "°C", 96.22],
  ["CCCCCCCCCCCCn1cc[n+](C)c1.O=S(=O)([N-]S(=O)(=O)C(F)(F)F)C(F)(F)F", "°C", 22.50]
]}

* * *

settings: 333.15 K; 101 kPa; Liquid; Vibrating tube method
The entries below come with measured mass density values attached.

{"columns": ["compound", "mass density / kg/m3"],
 "data": [
  ["CCCCCCCCCCCCCCn1cc[n+](C)c1.O=S(=O)([N-]S(=O)(=O)C(F)(F)F)C(F)(F)F", 1171.3],
  ["CCCCCCCCCCn1cc[n+](C)c1.O=S(=O)([N-]S(=O)(=O)C(F)(F)F)C(F)(F)F", 1247.5],
  ["CCCCCCCCCCn1cc[n+](C)c1.[Cl-] [1-decyl-3-methylimidazolium chloride]", 962.4],
  ["CCCCCCCCCCCCn1cc[n+](C)c1.O=S(=O)([N-]S(=O)(=O)C(F)(F)F)C(F)(F)F", 1216]
]}

* * *

The reader will find reported mass density values listed item by item below.
conditions: 323.15 K; 101 kPa; Liquid; Vibrating tube method

{"columns": ["molecule", "unitAbbrev", "mass density"],
 "data": [
  ["CCCCCCCCCCCCCCn1cc[n+](C)c1.O=S(=O)([N-]S(=O)(=O)C(F)(F)F)C(F)(F)F", "kg/m3", 1180],
  ["CCCCCCCCCCn1cc[n+](C)c1.[Cl-] [1-decyl-3-methylimidazolium chloride]", "kg/m3", 968.1],
  ["CCCCCCCCCCn1cc[n+](C)c1.O=S(=O)([N-]S(=O)(=O)C(F)(F)F)C(F)(F)F", "kg/m3", 1256.3],
  ["CCCCCCCCCCCCn1cc[n+](C)c1.O=S(=O)([N-]S(=O)(=O)C(F)(F)F)C(F)(F)F", "kg/m3", 1224.1]
]}

* * *

Reported mass density values for the following molecules.
conditions: 343.15 K; 101 kPa; Liquid; Vibrating tube method

{"columns": ["molecule", "mass density, kg/m3"],
 "data": [
  ["CCCCCCCCCCn1cc[n+](C)c1.[Cl-] [1-decyl-3-methylimidazolium chloride]", 956.4],
  ["CCCCCCCCCCCCCCn1cc[n+](C)c1.O=S(=O)([N-]S(=O)(=O)C(F)(F)F)C(F)(F)F", 1163.1],
  ["CCCCCCCCCCn1cc[n+](C)c1.O=S(=O)([N-]S(=O)(=O)C(F)(F)F)C(F)(F)F", 1239.4],
  ["CCCCCCCCCCCCn1cc[n+](C)c1.O=S(=O)([N-]S(=O)(=O)C(F)(F)F)C(F)(F)F", 1208.1]
]}

* * *

settings: 363.15 K; 101 kPa; Liquid; Vibrating tube method
resultType: mass density (kg/m3)

{"columns": ["molecule", "measValue"],
 "data": [
  ["CCCCCCCCCCn1cc[n+](C)c1.[Cl-] [1-decyl-3-methylimidazolium chloride]", 943.8],
  ["CCCCCCCCCCCCCCn1cc[n+](C)c1.O=S(=O)([N-]S(=O)(=O)C(F)(F)F)C(F)(F)F", 1146.5],
  ["CCCCCCCCCCCCn1cc[n+](C)c1.O=S(=O)([N-]S(=O)(=O)C(F)(F)F)C(F)(F)F", 1191.8],
  ["CCCCCCCCCCn1cc[n+](C)c1.O=S(=O)([N-]S(=O)(=O)C(F)(F)F)C(F)(F)F", 1222.3]
]}
